assay-comment: Functional Dkk1-LRP5-TCF-Luciferase Assay in U2OS Cells (table columns: A=MAX FOLD Induction/DMSO CONTROL; B=fold induction @ 2.0 uM; C=fold induction @ 20.0 uM)
Format: cell-based, Human
test-conditions: Homo sapiens, U2OS; 2.0 uM compound
Exercise: for every item that follows, state its recorded fold induction at 2 µM.
The answer should be written as a number, with no unit following it.

Tell us which fold induction at 2 µM value is on record for Cn1c(=O)n(C2CCN(S(C)(=O)=O)CC2)c2nccc(-c3ccc4ccccc4c3)c21
1.52

Tell us which fold induction at 2 µM value is on record for FC(F)(F)Oc1ccc(-c2nc3c(-c4ccc5ccccc5c4)ccnc3n2C2CCNCC2)cc1
1.51

Tell us which fold induction at 2 µM value is on record for c1ccc(N(c2ccccc2)c2ccc(-c3nc4c(-c5ccc6ccccc6c5)ccnc4n3C3CCNCC3)cc2)cc1
1.89

Tell us which fold induction at 2 µM value is on record for Fc1ccccc1-c1nc2cc(-c3ccc4ccccc4c3)cnc2n1C1CCNCC1
1.29

Tell us which fold induction at 2 µM value is on record for Fc1ccc(-c2nc3c(-c4ccc5ccccc5c4)ccnc3n2C2CCNCC2)c(C(F)(F)F)c1
1.11

Tell us which fold induction at 2 µM value is on record for c1ccc2cc(-c3cnc4c(c3)nc(-c3c[nH]c5ccccc35)n4C3CCNCC3)ccc2c1
1.11

Tell us which fold induction at 2 µM value is on record for c1ccc2cc(-c3ccnc4c3ncn4C3CNC3)ccc2c1
1.49

Tell us which fold induction at 2 µM value is on record for Oc1cccc(-c2nc3c(-c4ccc5ccccc5c4)ccnc3n2C2CCNCC2)c1O
1.33

Tell us which fold induction at 2 µM value is on record for O=C1OC2(c3ccc(O)cc3Oc3cc(O)ccc32)c2ccc(NC(=S)N3CCC(n4cnc5c(-c6ccc7ccccc7c6)ccnc54)CC3)cc21
1.4

Tell us which fold induction at 2 µM value is on record for c1ccc(-c2nc3c(-c4ccc5ccccc5c4)ccnc3n2C2CCNCC2)cc1
1.23

Tell us which fold induction at 2 µM value is on record for CN(C)C(=O)N1CCC(n2c(=O)n(C)c3c(-c4ccc5ccccc5c4)ccnc32)CC1
1.19

Tell us which fold induction at 2 µM value is on record for CCCCc1nc2c(-c3ccc4ccccc4c3)ccnc2n1C1CCNCC1
1.19

Tell us which fold induction at 2 µM value is on record for c1cncc(-c2nc3c(-c4ccc5ccccc5c4)ccnc3n2C2CCNCC2)c1
1.21

Tell us which fold induction at 2 µM value is on record for Cc1nc2c(-c3ccc4ccccc4c3)ccnc2n1C1CNC1
1.16

Tell us which fold induction at 2 µM value is on record for Cc1ccc(CCn2c(C)nc3c(-c4ccc5ccccc5c4)ccnc32)cc1
0.82

Tell us which fold induction at 2 µM value is on record for Cn1ccnc1-c1nc2c(-c3ccc4ccccc4c3)ccnc2n1C1CCNCC1
1.84

Tell us which fold induction at 2 µM value is on record for CC(=O)Nc1ccc(-c2nc3c(-c4ccc5ccccc5c4)ccnc3n2C2CCNCC2)cc1
1.99

Tell us which fold induction at 2 µM value is on record for Cc1ccc(-c2nc3cc(-c4ccc5ccccc5c4)cnc3n2C2CCNCC2)c(C)c1
1.31

Tell us which fold induction at 2 µM value is on record for O=[N+]([O-])c1cccc(-c2nc3c(-c4ccc5ccccc5c4)ccnc3n2C2CCNCC2)c1
1.29

This collection of values is drawn from patent US20090069319A1.
